Origin of values: PubChem BioAssay

- TEST_DESCRIPTION: small-molecule microarray binders of probe aEGFR, primary screen, biochemical, biotinylated probe, 635/667 nm fluorescence (AID 1097);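 also: probe is a biotinylated anti-EGFR antibody binding compounds printed on slides; score combines fluorescence near 667 nm and signal to noise of each spot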
- CONDITION_INFO: higher = more signal
Recorded composite z-score, one value per entry.
VALUE_TYPE: composite z-score

- COMPOUND: "COc1ccc([Si](C)(C)[C@H]2[C@H](CCO)O[C@@]3(C(=O)N(Cc4ccc(N(C=O)c5ccccc5)cc4)c4ccccc43)[C@@H]2C)cc1"
  MEASURED_VALUE: -0.162
- COMPOUND: "CN(C)CCCC[C@@H]1NC(=O)[C@H]2C[C@@H](C(=O)NCCCCCCN)[C@@H](c3ccc(O)cc3)N2C1=O"
  MEASURED_VALUE: 0.566
- COMPOUND: "C=CCOC(=O)[C@H]1[C@@H]2C(=O)O[C@@H](c3ccccc3)[C@@H](c3ccccc3)N2[C@@H](c2ccc(OCCOC(=O)[C@H]3C[C@H]4C(=O)N[C@@H](CCCCN(C)C)C(=O)N4[C@H]3c3ccc(O)cc3)cc2)[C@]12C(=O)Nc1ccc(I)cc12"
  MEASURED_VALUE: 0.124
- COMPOUND: "CC1CC/C=C\\[C@H]2OC34C=CCN(C(C)(C)C)C(=O)[C@H]3N(C(C)CO)C(=O)[C@@H]4C2C(=O)O1 (some centres not stated)"
  MEASURED_VALUE: -0.27
- COMPOUND: "OCCCC1=CC(c2cccs2)N(Cc2cc3c(cc2Br)OCO3)CC1 (configuration not stated)"
  MEASURED_VALUE: -0.0304
- COMPOUND: "C=CC(=C)[C@H]1Oc2ccccc2S(=O)(=O)N2CCC[C@@H]12"
  MEASURED_VALUE: -0.152
- COMPOUND: "COCCOC(=O)N1C(=O)[C@@]2(c3ccccc31)[C@H](C(=O)N1CCc3cc(OC)c(OC)cc3C1)[C@H]1C(=O)O[C@H](c3ccccc3)[C@H](c3ccccc3)N1[C@@H]2c1ccc(OCCO)cc1"
  MEASURED_VALUE: -0.0309
